Taken from patent US20130274100A1.

system: Erysiphe graminis f.sp. tritici; assay: Erysiphe test (wheat)/protective; type: in vivo; conditions: protective spray, application rate 62.5 g/ha, evaluation 7 days after inoculation
endpoint: Efficacy in % found
Entry format: amount then unit.

compound: CCCC1COC(Cn2cncn2)(c2ccc(Cl)cc2Cl)O1 (stereo not drawn)
system-under-test: Erysiphe graminis f.sp. tritici
Efficacy in % found: 29%
//
compound: CCCCC(O)(Cn1cncn1)c1ccc(Cl)cc1Cl (stereo not drawn)
system-under-test: Erysiphe graminis f.sp. tritici
Efficacy in % found: 29%
//
compound: CO/C=C(/C(=O)OC)c1ccccc1COc1cccc(C(F)(F)F)n1
system-under-test: Erysiphe graminis f.sp. tritici
Efficacy in % found: 71%

Lookup: Field request: Efficacy in % found | item: CC(C)CC(C)c1sccc1NC(=O)c1cn(C)nc1C(F)(F)F (stereo not drawn)
Found: 0%

Lookup: Can you share its Efficacy in % found? I mean this compound: CC(C1CC1)C(O)(Cn1cncn1)c1ccc(Cl)cc1 (stereo not drawn)
Found: 57%

Lookup: Using the record for "Cc1cc(C2CC2)nc(Nc2ccccc2)n1" , report its Efficacy in % found.
Found: 0%
